# Tested on: RyR2 in cardiac SR membranes decorated with D-85-FKBP (porcine (endogenous in porcine heart) | human)
# Test method notes: FRET or BRET
Where no end group is shown, it is not given here. QXL520 = dark acceptor
Measured quantity: Kd (µM)

binder="QXL520-GFCPDHKAAMVLFLDRVYGIEVQDFLLHLLEVGFLP [acceptor-labeled DPc10 (QXL520 at the N-terminus)]" quantitative_result=10.4
